# ASSAYED_SYSTEM: human recombinant GPR65 (Homo sapiens, UniProt Q8IYL9)
# Sequence (Q8IYL9 whole entry): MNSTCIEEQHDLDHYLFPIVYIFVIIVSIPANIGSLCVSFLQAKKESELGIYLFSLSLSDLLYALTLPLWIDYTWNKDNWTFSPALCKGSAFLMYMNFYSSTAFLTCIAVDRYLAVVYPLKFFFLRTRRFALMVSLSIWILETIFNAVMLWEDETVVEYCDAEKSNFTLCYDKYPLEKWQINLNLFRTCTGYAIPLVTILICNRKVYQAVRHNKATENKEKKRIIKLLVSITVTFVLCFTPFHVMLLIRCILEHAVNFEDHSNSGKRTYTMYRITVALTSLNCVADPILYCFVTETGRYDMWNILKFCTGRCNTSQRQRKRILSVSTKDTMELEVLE
# PROTOCOL_TEXT: Human GPR65 cAMP HTRF antagonist assay
# Format: cell-based
# Text: In one preferred embodiment, the compound prevents the increase in cytoplasmic cAMP levels expected following GPR65 activation at acidic pH. This prevention of cAMP accumulation in turn prevents downstream signalling through ICER, as described above. […] Human GPR65 Cyclic Adenosine Monophosphate (cAMP) Homogeneous Time Resolved Fluorescence (HTRF) Antagonist Assay Procedure […]
pIC50: −log10 of the molar value.
Recorded pIC50 for the following compounds

[
  {
    "COMPOUND": "CO[C@H]1C[C@H](Oc2ccc(NC(=O)N3[C@H]4CC[C@@H]3c3ccnc(F)c3C4)cc2Cl)C1",
    "ASSAYED_SYSTEM": "human recombinant GPR65 (Homo sapiens, UniProt Q8IYL9)",
    "pIC50": "5.30 to 6.30"
  },
  {
    "COMPOUND": "COc1ccc(-c2cc(F)c(NC(=O)N3[C@H]4CC[C@@H]3c3n[nH]c(=O)cc3C4)cc2C(F)(F)F)cn1",
    "ASSAYED_SYSTEM": "human recombinant GPR65 (Homo sapiens, UniProt Q8IYL9)",
    "pIC50": "> 6.30"
  },
  {
    "COMPOUND": "CS(=O)(=O)c1ccc(-c2cc(F)c(NC(=O)N3[C@H]4CC[C@@H]3c3n[nH]c(=O)cc3C4)cc2Cl)cc1F",
    "ASSAYED_SYSTEM": "human recombinant GPR65 (Homo sapiens, UniProt Q8IYL9)",
    "pIC50": "> 6.30"
  },
  {
    "COMPOUND": "O=C(Nc1cc(Cl)c(-c2cnc(OCC(F)(F)F)c(F)c2)cc1F)N1[C@H]2CC[C@@H]1c1n[nH]c(=O)cc1C2",
    "ASSAYED_SYSTEM": "human recombinant GPR65 (Homo sapiens, UniProt Q8IYL9)",
    "pIC50": "> 6.30"
  },
  {
    "COMPOUND": "O=C(Nc1cc(Cl)c(-c2ccc(OCC(F)F)nc2)cc1F)N1[C@H]2CC[C@@H]1c1n[nH]c(=O)cc1C2",
    "ASSAYED_SYSTEM": "human recombinant GPR65 (Homo sapiens, UniProt Q8IYL9)",
    "pIC50": "> 6.30"
  },
  {
    "COMPOUND": "O=C(Nc1cc(Br)c(Cl)cc1F)N1C2CCC1c1c[nH]c(=O)nc1C2 (racemic)",
    "ASSAYED_SYSTEM": "human recombinant GPR65 (Homo sapiens, UniProt Q8IYL9)",
    "pIC50": "> 6.30"
  },
  {
    "COMPOUND": "CO[C@H]1CC[C@@H](Oc2ccc(-c3cc(F)c(NC(=O)N4[C@H]5CC[C@@H]4c4n[nH]c(=O)cc4C5)cc3Cl)cn2)CC1",
    "ASSAYED_SYSTEM": "human recombinant GPR65 (Homo sapiens, UniProt Q8IYL9)",
    "pIC50": "> 6.30"
  }
]

----------
# ASSAYED_SYSTEM: human recombinant GPR65 (Homo sapiens, UniProt Q8IYL9)
# PROTOCOL_TEXT: Human GPR65 cAMP HTRF antagonist assay
# Assay type: cell-based
pIC50: −log10 of the molar value.
Recorded pIC50 for the following molecules

[
  {
    "MOLECULE": "O=C(Nc1cc(Cl)c(F)cc1Oc1ccc2nonc2c1)N1[C@H]2CC[C@@H]1c1n[nH]c(=O)cc1C2 [Compound 224]",
    "pIC50": "5.30 to 6.30"
  },
  {
    "MOLECULE": "O=C(Nc1cc(C(F)(F)F)c(-c2cnc3nonc3c2)cc1F)N1[C@H]2CC[C@@H]1c1n[nH]c(=O)cc1C2 [Compound 269]",
    "pIC50": "> 6.30"
  },
  {
    "MOLECULE": "O=C(Nc1cc(-c2ccccc2)on1)N1[C@H]2CC[C@@H]1c1n[nH]c(=O)cc1C2 [Compound 166]",
    "pIC50": "> 6.30"
  },
  {
    "MOLECULE": "COc1cc(-c2cc(F)c(NC(=O)N3[C@H]4CC[C@@H]3c3c[nH]c(=O)cc3C4)cc2Cl)ccn1 [Compound 265]",
    "pIC50": "> 6.30"
  }
]

----------
# ASSAYED_SYSTEM: human recombinant GPR65 (Homo sapiens, UniProt Q8IYL9)
# PROTOCOL_TEXT: Human GPR65 cAMP HTRF antagonist assay
# Type: cell-based
# MEASUREMENT_SETUP: 1321N1-hrGPR65 cells, cAMP HTRF, assay pH 7.2; read-out: hGPR65 IC50 (Activity of selected compounds according to the invention)

[
  {
    "COMPOUND": "CN(C)Cc1cccc(-c2cc(F)c(NC(=O)N3[C@H]4CC[C@@H]3c3n[nH]c(=O)cc3C4)cc2Cl)c1",
    "ASSAYED_SYSTEM": "human recombinant GPR65 (Homo sapiens, UniProt Q8IYL9)",
    "IC50": "0.5 to 5 µM"
  },
  {
    "COMPOUND": "O=C(Nc1cc(Cl)c(Cl)cc1F)N1[C@H]2CC[C@@H]1c1ccnc(OC(F)F)c1C2",
    "ASSAYED_SYSTEM": "human recombinant GPR65 (Homo sapiens, UniProt Q8IYL9)",
    "IC50": "0.5 to 5 µM"
  },
  {
    "COMPOUND": "O=C(Nc1ccc(OC(F)(F)F)c(Cl)c1)N1[C@@H]2CC[C@H]1c1n[nH]c(=O)cc1C2",
    "ASSAYED_SYSTEM": "human recombinant GPR65 (Homo sapiens, UniProt Q8IYL9)",
    "IC50": "> 5 µM"
  },
  {
    "COMPOUND": "O=C(Nc1cc(Br)c(C(F)(F)F)cc1F)N1[C@@H]2CC[C@H]1c1n[nH]c(=O)cc1C2",
    "ASSAYED_SYSTEM": "human recombinant GPR65 (Homo sapiens, UniProt Q8IYL9)",
    "IC50": "> 5 µM"
  },
  {
    "COMPOUND": "O=C(Nc1cc(Cl)c(C(F)(F)F)cc1F)N1C2CCC1[C@@H](O)c1c2ccnc1F (mixture of isomers)",
    "ASSAYED_SYSTEM": "human recombinant GPR65 (Homo sapiens, UniProt Q8IYL9)",
    "IC50": "0.5 to 5 µM"
  },
  {
    "COMPOUND": "O=C(Nc1cc(Cl)c(Cl)cc1F)N1[C@@H]2CC[C@H]1c1n[nH]c(=O)cc1C2",
    "ASSAYED_SYSTEM": "human recombinant GPR65 (Homo sapiens, UniProt Q8IYL9)",
    "IC50": "0.5 to 5 µM"
  },
  {
    "COMPOUND": "CNCCOc1ccc(-c2cc(F)c(NC(=O)N3[C@H]4CC[C@@H]3c3ccnc(F)c3C4)cc2Cl)cn1",
    "ASSAYED_SYSTEM": "human recombinant GPR65 (Homo sapiens, UniProt Q8IYL9)",
    "IC50": "0.5 to 5 µM"
  }
]

----------
# ASSAYED_SYSTEM: human recombinant GPR65 (Homo sapiens, UniProt Q8IYL9)
# PROTOCOL_TEXT: Human GPR65 cAMP HTRF antagonist assay
# Assay type: cell-based
Recorded IC50 for the following compounds

[
  {
    "COMPOUND": "O=C(Nc1cc(Cl)c(-c2ccc3nonc3c2)cn1)N1[C@H]2CC[C@@H]1c1ccnc(F)c1C2",
    "IC50": "< 0.5 µM"
  },
  {
    "COMPOUND": "O=C(Nc1cc(Cl)c(Oc2ccc(F)nc2)cc1F)N1[C@H]2CC[C@@H]1c1n[nH]c(=O)cc1C2",
    "IC50": "< 0.5 µM"
  },
  {
    "COMPOUND": "O=C(Nc1cc(Cl)c(-c2cncc(F)c2)cc1F)N1[C@H]2CC[C@@H]1c1c[nH]c(=O)cc1C2",
    "IC50": "< 0.5 µM"
  },
  {
    "COMPOUND": "O=C(Nc1ccc(C(F)(F)F)c(Br)c1)N1[C@H]2CC[C@@H]1c1n[nH]c(=O)cc1C2",
    "IC50": "< 0.5 µM"
  },
  {
    "COMPOUND": "O=C(Nc1cc(Cl)c(COc2ccc(F)nc2)cc1F)N1[C@H]2CC[C@@H]1c1n[nH]c(=O)cc1C2",
    "IC50": "< 0.5 µM"
  },
  {
    "COMPOUND": "O=C(Nc1cc(Cl)c(-c2ccc3nonc3c2)cc1F)N1[C@H]2CC[C@@H]1c1ccnc(F)c1C2",
    "IC50": "< 0.5 µM"
  },
  {
    "COMPOUND": "Cc1nc2cc(-c3cc(F)c(NC(=O)N4[C@H]5CC[C@@H]4c4ccnc(F)c4C5)cc3Cl)ccc2o1",
    "IC50": "< 0.5 µM"
  },
  {
    "COMPOUND": "COc1cc(-c2cc(F)c(NC(=O)N3[C@H]4CC[C@@H]3c3n[nH]c(=O)cc3C4)cc2Cl)ccn1",
    "IC50": "< 0.5 µM"
  },
  {
    "COMPOUND": "O=C(Nc1cc(Cl)c(OC2CCC2)cc1F)N1[C@H]2CC[C@@H]1c1ccnc(F)c1C2",
    "IC50": "< 0.5 µM"
  },
  {
    "COMPOUND": "O=C(Nc1cc(F)c(-c2ccc(C(F)(F)F)nc2)cc1F)N1[C@H]2CC[C@@H]1c1n[nH]c(=O)cc1C2",
    "IC50": "< 0.5 µM"
  },
  {
    "COMPOUND": "O=C(Nc1ccc(OC(F)(F)F)c(Cl)c1)N1C2CCC1c1n[nH]c(=O)cc1C2 (racemic)",
    "IC50": "< 0.5 µM"
  },
  {
    "COMPOUND": "O=C(Nc1ccc(C(F)(F)F)c(Br)c1)N1[C@@H]2CC[C@H]1c1n[nH]c(=O)cc1C2",
    "IC50": "> 5 µM"
  },
  {
    "COMPOUND": "O=C(Nc1cc(Cl)c(-c2cncc(F)c2)cc1F)N1[C@H]2CC[C@@H]1c1n[nH]c(=O)cc1C2",
    "IC50": "< 0.5 µM"
  },
  {
    "COMPOUND": "O=C(Nc1cc(-c2cncc(F)c2)c(C(F)(F)F)cc1F)N1[C@H]2CC[C@@H]1c1n[nH]c(=O)cc1C2",
    "IC50": "< 0.5 µM"
  },
  {
    "COMPOUND": "CS(=O)(=O)c1ccc(-c2cc(F)c(NC(=O)N3[C@H]4CC[C@@H]3c3n[nH]c(=O)cc3C4)cc2Cl)cc1",
    "IC50": "< 0.5 µM"
  },
  {
    "COMPOUND": "O=C(Nc1ccc(Cl)c(Br)c1)N1[C@H]2CC[C@@H]1c1n[nH]c(=O)cc1C2",
    "IC50": "< 0.5 µM"
  },
  {
    "COMPOUND": "O=C(Nc1cc(Cl)c(-c2ccc(OCC(F)F)nc2)cc1F)N1[C@H]2CC[C@@H]1c1c[nH]c(=O)cc1C2",
    "IC50": "< 0.5 µM"
  },
  {
    "COMPOUND": "O=C(Nc1cc(Cl)c(Cl)cc1F)N1[C@H]2CC[C@@H]1c1ncc(F)cc1C2",
    "IC50": "< 0.5 µM"
  },
  {
    "COMPOUND": "O=C(Nc1cc(Cl)c(I)cc1F)N1[C@H]2CC[C@@H]1c1ccnc(F)c1C2",
    "IC50": "< 0.5 µM"
  },
  {
    "COMPOUND": "O=C(Nc1cc(Cl)c(-c2ccc(F)nc2)cc1F)N1[C@H]2CC[C@@H]1c1c[nH]c(=O)cc1C2",
    "IC50": "< 0.5 µM"
  },
  {
    "COMPOUND": "O=C(Nc1cc(Cl)c(-c2ccc3nonc3c2F)cc1F)N1[C@H]2CC[C@@H]1c1n[nH]c(=O)cc1C2",
    "IC50": "< 0.5 µM"
  },
  {
    "COMPOUND": "O=C(Nc1cc(Cl)c(-c2cncc(F)c2)cc1F)N1[C@H]2CC[C@@H]1c1ccnc(F)c1C2",
    "IC50": "< 0.5 µM"
  },
  {
    "COMPOUND": "CN(C)CCOc1ccc(-c2cc(F)c(NC(=O)N3[C@H]4CC[C@@H]3c3ccnc(F)c3C4)cc2Cl)cn1",
    "IC50": "< 0.5 µM"
  },
  {
    "COMPOUND": "Cc1nc2ccc(-c3cc(F)c(NC(=O)N4[C@H]5CC[C@@H]4c4n[nH]c(=O)cc4C5)cc3Cl)cc2o1",
    "IC50": "< 0.5 µM"
  },
  {
    "COMPOUND": "O=C(Nc1cc(Cl)c(-c2ccccc2)cc1F)N1[C@H]2CC[C@@H]1c1ccnc(F)c1C2",
    "IC50": "< 0.5 µM"
  },
  {
    "COMPOUND": "COc1ccc(-c2cc(F)c(NC(=O)N3[C@H]4CC[C@@H]3c3c[nH]c(=O)cc3C4)cc2Cl)cn1",
    "IC50": "< 0.5 µM"
  },
  {
    "COMPOUND": "O=C(Nc1ccc(Br)c(C(F)(F)F)c1)N1[C@H]2CC[C@@H]1c1n[nH]c(=O)cc1C2",
    "IC50": "< 0.5 µM"
  },
  {
    "COMPOUND": "O=C(Nc1cc(Cl)c(-c2ncco2)cc1F)N1[C@H]2CC[C@@H]1c1n[nH]c(=O)cc1C2",
    "IC50": "0.5 to 5 µM"
  },
  {
    "COMPOUND": "Cn1ncc(-c2cc(F)c(NC(=O)N3[C@H]4CC[C@@H]3c3n[nH]c(=O)cc3C4)cc2Cl)n1",
    "IC50": "< 0.5 µM"
  }
]
